Provenance of the data: patent US20230150981A1

tgt: SSTR4 (Homo sapiens, UniProt P31391)
Construct: host or cells: CHO-K1
Sequence (P31391 whole entry): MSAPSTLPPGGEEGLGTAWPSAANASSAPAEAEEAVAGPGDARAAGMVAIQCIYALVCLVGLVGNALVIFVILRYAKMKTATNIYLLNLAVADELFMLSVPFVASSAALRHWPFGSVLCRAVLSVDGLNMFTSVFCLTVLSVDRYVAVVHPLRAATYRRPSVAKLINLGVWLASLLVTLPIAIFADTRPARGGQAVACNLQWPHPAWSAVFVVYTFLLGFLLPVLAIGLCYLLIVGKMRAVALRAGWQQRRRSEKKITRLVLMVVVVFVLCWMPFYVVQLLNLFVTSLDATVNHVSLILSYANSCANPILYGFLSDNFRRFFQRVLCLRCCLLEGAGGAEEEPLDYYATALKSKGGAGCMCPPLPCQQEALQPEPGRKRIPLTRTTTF
assay_procedure: Inhibition of forskolin stimulated cAMP in CHO-K1 cells overexpressing SSTR4
Type: cell-based
assay_context: read-out: SSTR4 Activity pEC50 (converted)
readout: EC50 (nM)

CC[C@H](CN1CCC1)C(=O)NC(C)(C)c1ccc(C)cc1 (single isomer, unassigned): 200

P: CN1CCCC[C@@H]1CC(=O)NC(C)(C)c1nccc2occc12 (single isomer, unassigned)
Q: Cc1cccnc1OCC1(NC(=O)[C@@H](C)[C@H]2CCCN2C)CC1 (single isomer, unassigned)
R: CCOc1cccnc1OCC(C)(C)NC(=O)C[C@H]1CCCN1C
Q. Could you please order the items by EC50, going from the lowest number to the highest? As an answer, provide the labels arranged in the order called for.
A. P, R, Q

* * *

tgt: SSTR4 (Homo sapiens)
Construct: host or cells: CHO-K1
assay_procedure: Inhibition of forskolin stimulated cAMP in CHO-K1 cells overexpressing SSTR4
Format: cell-based
assay_context: read-out: SSTR4 Activity pEC50 (converted)
readout: EC50 (nM)

CC[C@H](CN1CCC1)C(=O)NC(C)(C)c1cccc(F)c1 (single isomer, unassigned): 0.631
COc1ncccc1CC1(NC(=O)CC2CCCCN2C)CC1 (centres unmarked): 398
CN1CCC[C@@H]1CC(=O)NC(C)(C)COc1ncccc1C1CC1: 20
CN1CCC[C@@H]1CC(=O)NC(C)(C)c1cccc(Cl)c1Cl: 15.8

a: CC[C@@H](CN1CCC1)C(=O)NC(C)(C)c1ccccc1F (single isomer, unassigned)
b: O=C(CCN1CCCC1)N[C@@H](c1cccc(Cl)c1)C(F)F (single isomer, unassigned)
Q. Could you tell me which of these two has the smaller EC50 figure? First: a Second: b # reply format: chosen label
A. a
(a: 2 nM, b: 2000 nM)

* * *

tgt: SSTR4 (Homo sapiens, UniProt P31391)
Construct: host or cells: CHO-K1
assay_procedure: SSTR4 I-125 somatostatin competition binding assay (CHO-K1 membranes)
assay_context: competition with I-125 somatostatin, membranes from CHO-K1 overexpressing SSTR4; read-out: SSTR4 Binding pIC50 (converted)
readout: IC50 (nM)

Consider the following illustrative entries.
C[C@H](CN1CCC1)C(=O)NC(C)(C)c1ccccc1F (single isomer, unassigned): 100
Cc1cccc2c(C(C)(C)NC(=O)C[C@H]3CCCN3C)nccc12: 100

1: CC(C)[C@@H](CN1CCC1)C(=O)N[C@@H](c1ccccc1)C(F)F
2: Cc1cccc2c(C(C)(C)NC(=O)C[C@@H]3CCCN3C)nccc12
Q. Among 1 and 2 , whose measured IC50 is the smaller figure? State your choice using its label.
A. 1

* * *

tgt: SSTR4 (Homo sapiens)
Construct: host or cells: CHO-K1
assay_procedure: SSTR4 I-125 somatostatin competition binding assay (CHO-K1 membranes)
assay_context: competition with I-125 somatostatin, membranes from CHO-K1 overexpressing SSTR4; read-out: SSTR4 Binding pIC50 (converted)
readout: IC50 (nM)

See these solved cases before continuing.
Cc1c(Cl)cccc1C(C)(C)NC(=O)C[C@H]1CCCN1C: 251
Cc1ccc(C(NC(=O)CCN2CCC2)C(F)(F)F)cc1 (single isomer, unassigned): 39.8
Cc1cccc2c(C(C)(C)NC(=O)C[C@H]3CCCCN3C)noc12 (single isomer, unassigned): 20
CCN1CCC[C@@H]1CC(=O)NC(C)(C)COc1ncccc1C(F)(F)F: 100
C[C@H](CN1CCC1)C(=O)N[C@@H](CF)c1ccccc1 (single isomer, unassigned): 25.1

a: CC(C)(NC(=O)C[C@@H]1CCCN1)c1nccc2ccccc12
b: Cc1cccc2c(C(C)(C)NC(=O)CC3CCCN3C)nn(C)c12 (centres unmarked)
Q. Hi, I'm comparing a with b and wondering which one has the bigger number for IC50. Any idea? Answer with the label corresponding to your selection.
A. a

* * *

tgt: SSTR4 (Homo sapiens, UniProt P31391)
Construct: host or cells: CHO-K1
assay_procedure: Inhibition of forskolin stimulated cAMP in CHO-K1 cells overexpressing SSTR4
Format: cell-based
assay_context: read-out: SSTR4 Activity pEC50 (converted)
readout: EC50 (µM)

Example entries and their recorded answers appear below.
Cc1cccnc1OCC(C)(C)NC(=O)CC12CCCN1CCC2 [Example 77]: 0.0794
COc1c(Cl)cccc1C(C)(C)NC(=O)C[C@H]1CCCN1C [Example 113]: 0.0794
CC[C@@H](CN1CCC1)C(=O)N[C@H](c1ccc(F)cc1)C(F)F [Example 204]: 0.0001
CN1CCC[C@H]1CC(=O)NC(C)(C)[C@H]1CCc2ccccc2O1 (single isomer, unassigned) [Example 129]: 0.398
CN1CCCCC1CC(=O)NC(C)(C)c1cc(Cl)ccc1Cl (centres unmarked) [Example 45]: 0.0251

I: CC(C)(NC(=O)CCN1CCC1)c1ccc(Cl)cc1 [Example 165]
II: CC[C@@H](CN1CCC1)C(=O)NC(C)(C)c1ccc(F)cc1 (single isomer, unassigned) [Example 183]
Q. Identify the entry with the smaller EC50: I or II . Identify your pick by its label.
A. I

* * *

tgt: SSTR4 (Homo sapiens)
Construct: host or cells: CHO-K1
assay_procedure: Inhibition of forskolin stimulated cAMP in CHO-K1 cells overexpressing SSTR4
Assay type: cell-based
assay_context: read-out: SSTR4 Activity pEC50 (converted)
readout: EC50 (nM)

Example cases with answers are listed next.
Cc1ccccc1C(C)(C)NC(=O)[C@@H](C)CN1CCC1 (single isomer, unassigned): 398
Cc1cccc2c(C(C)(C)NC(=O)C[C@@H]3CCCCN3C)noc12 (single isomer, unassigned): 6.31

I: Cc1cnc(C(C)(C)NC(=O)CC2CCCCN2C)c2ccccc12 (stereo not shown)
II: Cc1cccc2c(C(C)(C)NC(=O)CC3N(C)CCC3(F)F)nccc12 (stereo not shown)
Q. Between the entries labelled I and II , which has a larger EC50 value on record? Mark your answer with the label of the selected entry.
A. II
(II: 158 nM, I: 0.794 nM)

A: COc1c(F)cccc1C(C)(C)NC(=O)[C@@H](C)CN1CCC1 (single isomer, unassigned)
B: CN1CCCCC1CC(=O)NC(C)(C)c1ccc(Cl)cc1 (stereo not shown)
C: O=C(CCN1CCC1)NC(c1cccc(Cl)c1)C(F)(F)F (single isomer, unassigned) [Example 192]
Q. # desc sort on EC50 across 3 compounds In plain terms: list the labels in the order you were asked to.
A. A, B, C
(A: 251 nM, B: 31.6 nM, C: 15.8 nM)

P: CN1CCC[C@H]1CC(=O)NC(C)(C)c1cc(Cl)ccc1Cl
Q: Cc1cccnc1OCC1(NC(=O)C(C)C2CCCN2C)CC1 (stereo not shown)
Q. Which has the smaller recorded EC50, P or Q ? Refer to your chosen item by its label in the answer.
A. Q

* * *

tgt: SSTR1 (Homo sapiens, UniProt P30872)
Construct: purchased Perkin Elmer ES-520-M400UA; host or cells: CHO-K1 membranes
Sequence (P30872 whole entry): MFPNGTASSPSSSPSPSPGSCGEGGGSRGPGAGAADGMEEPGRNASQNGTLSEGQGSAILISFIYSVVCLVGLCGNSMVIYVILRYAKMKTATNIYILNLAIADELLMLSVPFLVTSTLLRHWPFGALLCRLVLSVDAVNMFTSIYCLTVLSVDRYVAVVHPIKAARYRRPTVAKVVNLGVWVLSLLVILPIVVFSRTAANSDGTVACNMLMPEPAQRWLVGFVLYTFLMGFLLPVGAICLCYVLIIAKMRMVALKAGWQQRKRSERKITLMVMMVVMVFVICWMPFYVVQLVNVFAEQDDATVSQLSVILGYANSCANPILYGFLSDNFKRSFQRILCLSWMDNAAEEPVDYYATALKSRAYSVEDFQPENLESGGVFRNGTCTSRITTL
assay_procedure: SSTR1 I-125 somatostatin competition binding assay for selectivity versus SSTR1 (CHO-K1 membranes)
assay_context: competition with I-125 somatostatin, membranes from CHO-K1 overexpressing SSTR1; read-out: SSTR1 Binding pIC50 (converted)
readout: IC50 (µM)

Here are 2 molecules together with their reported answers.
CC(CN1CCCC1)C(=O)NC(C)(C)c1ccccc1Cl (stereo not drawn) [Example 135]: 15.8
Cc1cc2ccccc2c(C(C)(C)NC(=O)C[C@H]2CCCN2C)n1 [Example 70]: 1.26

1: Cc1c(Cl)cccc1C(C)(C)NC(=O)C[C@H]1CCCN1C [Example 119]
2: CN1CCCCC1CC(=O)NC(C)(C)c1nccc2ccccc12 (stereo not drawn) [Example 6]
Q. Lowest IC50? choose 1 or 2 Answer by quoting the chosen item's label.
A. 2

A: C[C@H](CN1CCC1)C(=O)N[C@H](c1ccccc1)C(F)F (single isomer, unassigned) [Example 181]
B: CCN1CCC[C@@H]1CC(=O)NC(C)(C)COc1ncccc1C(F)(F)F [Example 57]
Q. Kindly compare A with B and tell me which has the lower IC50 figure. // return label of chosen record
A. A

A: Cc1cccnc1OCC1(NC(=O)C[C@@H]2CCCN2C)CCC1 [Example 55]
B: Cc1cccc2c(C(C)(C)NC(=O)C[C@@H]3CCCN3C)nccc12 [Example 18]
C: CN1CCC[C@H]1CC(=O)NC(C)(C)c1cccc(Cl)c1Cl [Example 80]
Q. # desc sort on IC50 across 3 molecules Rank the items, then write their labels in that order.
A. A, C, B
(A: 39.8 µM, C: 20 µM, B: 7.94 µM)

* * *

tgt: SSTR4 (Homo sapiens, UniProt P31391)
Construct: host or cells: CHO-K1
assay_procedure: Inhibition of forskolin stimulated cAMP in CHO-K1 cells overexpressing SSTR4
Format: cell-based
assay_context: read-out: SSTR4 Activity pEC50 (converted)
readout: EC50 (nM)

Example results:
Cc1ccc(OCC(C)(C)NC(=O)C[C@@H]2CCCN2C)nc1 [Example 103]: 501
C[C@H](NC(=O)CC1CCCCN1C)c1ccc(Cl)cc1 (some centres unmarked) [Example 60]: 100
Cc1cccc(C(C)(C)NC(=O)C[C@@H]2CCCN2C)c1C [Example 92]: 63.1
Cc1cccc(CC2(NC(=O)C[C@@H]3CCCN3C)CC2)c1 [Example 81]: 398

a: CC(CN1CCC1)C(=O)NC(C)(C)c1ccccc1Cl (centres unmarked) [Example 132]
b: O=C(CCN1CCC1)NC(c1ccccc1F)C(F)(F)F (single isomer, unassigned) [Example 209]
Q. Please let me know which one, a or b , has a lower measured EC50 value. # answer = label of selected item
A. b
(b: 1.26 nM, a: 7.94 nM)
